targetSystem: T1, Human chemokine receptor CXCR4 (human, UniProt P61073 1-352)
T1 construct: whole, on cells; Used as membranes (0.5 ug membrane protein) of Chem-1 cells that express the receptor; also called C-X-C chemokine receptor type 4; fusin
T1 sequence (P61073 whole entry): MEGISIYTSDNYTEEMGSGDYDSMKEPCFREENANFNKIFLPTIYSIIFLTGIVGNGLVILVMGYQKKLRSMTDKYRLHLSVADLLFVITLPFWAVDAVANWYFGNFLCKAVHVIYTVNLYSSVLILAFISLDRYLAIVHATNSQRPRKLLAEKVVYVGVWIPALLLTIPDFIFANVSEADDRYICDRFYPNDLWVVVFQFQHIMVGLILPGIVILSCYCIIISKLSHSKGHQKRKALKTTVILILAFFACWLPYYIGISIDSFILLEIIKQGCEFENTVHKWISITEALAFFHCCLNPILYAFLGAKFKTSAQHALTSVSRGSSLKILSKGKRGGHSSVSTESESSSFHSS
experimentalDetails: competition with [125I]SDF-1α, human CXCR4 membranes (Chem-1 cells)
Bridge positions count the residues as written; N and C are the ends. Square brackets hold non-standard residues; d marks the D form. * marks the point of attachment. 2Nal = N[C@@H](Cc1ccc2ccccc2c1)C(=O)O; hCys = N[C@@H](CCS)C(=O)O; Bz = O=C(c1ccccc1)*; iPr = CC(C)*
recordedMetric: Binding Kb (nM)
Output spec: scalar in nM, unitless text.

Inquiry: Give its Binding Kb value. Item: Ac-[hCys]YK(iPr)[dR][2Nal]GCK(iPr)G-NH2 (disulfide 1-7; also: acetate salt, Synthetic cyclic peptide, acetate salt; also called MLB-010) [Ac-cyclo[hCys-Tyr-Lys(iPr)-(D-Arg)-2Nal-Gly-Cys]-Lys(iPr)-Gly-NH2]
Reply text: 0.17

Inquiry: Now this one: Ac-[hCys]YK(iPr)[dR][2Nal]GCK(iPr)G-NHEt (disulfide 1-7; also: acetate salt, Synthetic cyclic peptide, acetate salt; also called MLB-026) [Ac-cyclo[hCys-Tyr-Lys(iPr)-(D-Arg)-2Nal-Gly-Cys]-Lys(iPr)-Gly-NH(Et)]
Reply text: 0.27

Inquiry: Now this one: Bz-[hCys]YK(iPr)[dR][2Nal]GCK(iPr)G-NH2 (disulfide 1-7; also: acetate salt, Synthetic cyclic peptide, acetate salt; also called MLB-021) [Benzoyl-cyclo[hCys-Tyr-Lys(iPr)-(D-Arg)-2Nal-Gly-Cys]-Lys(iPr)-Gly-NH2]
Reply text: 0.13
